Source of measurements: patent US20100015058A1

Test: MicroPET blood and normal organ uptake in T47D and MDA-MB-435 tumor-bearing nude mice
Settings: female, nude, mouse, liver, iv, total radioactivity
Measured attribute: tissue uptake at 0.5 h (%ID/g)
Numbers only here, please. The scale is %ID/g.

(Q) GET /values?readout=tissue uptake at 0.5 h&item= CSCC[C@H](NC(=O)[C@H](CC(C)C)NC(=O)[C@H](Cc1c[nH]cn1)NC(=O)CNC(=O)[C@@H](NC(=O)[C@H](C)NC(=O)[C@H](Cc1c[nH]c2ccccc12)NC(=O)[C@H](CCC(N)=O)NC(=O)CCCCCNC(=O)CC[C@H](NC(=O)COCCOCCOCCNC(=O)c1ccc([18F])cc1)C(=O)NCCCC[C@@H]1NC(=O)[C@@H](Cc2ccc(O)cc2)NC(=O)[C@H](CC(=O)O)NC(=O)CNC(=O)[C@H](CCCNC(=N)N)NC1=O)C(C)C)C(N)=O [^18F-FB-PEG3-RGD-BBN]
(A) 1.13
